# Test system: WaGa
# Method: qHTS assay to identify novel small-molecules to repurpose for Merkel cell carcinoma treatment (AID 1296009); note: nearly all actives have a fitted effect of over 60% in size
# Condition description: MCC and control cell lines, CellTiter-Glo viability, 72 h; series mostly up to 46 µM
Inconclusive results are not listed. Calls of active or inactive are those of the source. Calls come from the whole dose curve; as a rule, active = well fitted inhibition curve with a large enough effect; inconclusive = small, poorly fitted or top-dose-only effect; inactive = flat fitted curve, though single readings scatter.
Outcome codes: active, inactive

>  <Structure as smiles>
O=C(Nc1ncc([N+](=O)[O-])s1)c1cccs1

>  <Experimental system>
WaGa

>  <Label>
active

$$$$
>  <Structure as smiles>
CC(=O)NCCCCCC(=O)O

>  <Experimental system>
WaGa

>  <Label>
inactive

$$$$
>  <Structure as smiles>
COc1cc(C(=O)NCc2ccc(OCCN(C)C)cc2)cc(OC)c1OC

>  <Experimental system>
WaGa

>  <Label>
inactive

$$$$
>  <Structure as smiles>
CCNC(=O)NCc1cccc(Cl)c1

>  <Experimental system>
WaGa

>  <Label>
inactive

$$$$
>  <Structure as smiles>
C=C[C@H]1CN2CC[C@H]1C[C@@H]2[C@@H](O)c1ccnc2ccc(OC)cc12

>  <Experimental system>
WaGa

>  <Label>
inactive

$$$$
>  <Structure as smiles>
CCCCCCCCCCCCCCCCO

>  <Experimental system>
WaGa

>  <Label>
inactive

$$$$
>  <Structure as smiles>
CC(=O)OCC(=O)[C@H]1CC[C@H]2[C@@H]3CCC4=CC(=O)CC[C@]4(C)[C@H]3CC[C@]12C

>  <Experimental system>
WaGa

>  <Label>
inactive

$$$$
